Collected CC50 values appear next to each entry.
- testProtocol: in vitro
- reportedConditions: dog

>  <querySmiles>
NC(=O)c1ncn([C@@H]2O[C@H](CO)[C@@H](O)[C@H]2O)n1

>  <CC50 (µM)>
352

$$$$
>  <querySmiles>
Nc1nc2c(ncn2[C@@H]2O[C@H](CO)[C@@H](O)[C@H]2O)c(=O)[nH]1

>  <CC50 (µM)>
122

$$$$

Cited source: paper PMC4155405
